Data origin: ChEMBL document CHEMBL4368943

- assay-target: von Hippel-Lindau disease tumor suppressor/Estrogen receptor/Cullin-2 (Homo sapiens, UniProt P03372+P40337+Q13617)
- Sequence (P03372 whole entry, looked up): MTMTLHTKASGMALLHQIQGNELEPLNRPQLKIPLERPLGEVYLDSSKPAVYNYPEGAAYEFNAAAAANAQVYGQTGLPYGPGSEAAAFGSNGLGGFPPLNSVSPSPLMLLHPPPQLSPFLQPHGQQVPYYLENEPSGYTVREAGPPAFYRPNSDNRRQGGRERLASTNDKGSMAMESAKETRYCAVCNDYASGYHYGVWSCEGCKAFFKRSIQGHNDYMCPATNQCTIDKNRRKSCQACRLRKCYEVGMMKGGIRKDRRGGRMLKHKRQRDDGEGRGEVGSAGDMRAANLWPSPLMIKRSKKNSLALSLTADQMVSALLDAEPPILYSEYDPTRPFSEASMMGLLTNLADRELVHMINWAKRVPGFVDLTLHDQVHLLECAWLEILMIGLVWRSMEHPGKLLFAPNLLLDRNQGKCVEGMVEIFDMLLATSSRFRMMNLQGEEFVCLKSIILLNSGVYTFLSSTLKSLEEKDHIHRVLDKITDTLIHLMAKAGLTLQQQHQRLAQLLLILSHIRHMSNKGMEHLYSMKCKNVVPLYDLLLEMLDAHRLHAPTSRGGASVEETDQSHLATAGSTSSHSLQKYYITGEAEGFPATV
- Sequence (P40337 whole entry, looked up): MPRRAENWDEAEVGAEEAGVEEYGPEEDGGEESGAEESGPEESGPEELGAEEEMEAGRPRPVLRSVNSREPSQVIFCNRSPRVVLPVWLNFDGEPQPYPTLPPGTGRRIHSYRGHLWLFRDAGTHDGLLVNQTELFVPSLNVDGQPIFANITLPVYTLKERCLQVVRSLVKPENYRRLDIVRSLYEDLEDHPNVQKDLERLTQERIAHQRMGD
- Sequence (Q13617 whole entry, looked up): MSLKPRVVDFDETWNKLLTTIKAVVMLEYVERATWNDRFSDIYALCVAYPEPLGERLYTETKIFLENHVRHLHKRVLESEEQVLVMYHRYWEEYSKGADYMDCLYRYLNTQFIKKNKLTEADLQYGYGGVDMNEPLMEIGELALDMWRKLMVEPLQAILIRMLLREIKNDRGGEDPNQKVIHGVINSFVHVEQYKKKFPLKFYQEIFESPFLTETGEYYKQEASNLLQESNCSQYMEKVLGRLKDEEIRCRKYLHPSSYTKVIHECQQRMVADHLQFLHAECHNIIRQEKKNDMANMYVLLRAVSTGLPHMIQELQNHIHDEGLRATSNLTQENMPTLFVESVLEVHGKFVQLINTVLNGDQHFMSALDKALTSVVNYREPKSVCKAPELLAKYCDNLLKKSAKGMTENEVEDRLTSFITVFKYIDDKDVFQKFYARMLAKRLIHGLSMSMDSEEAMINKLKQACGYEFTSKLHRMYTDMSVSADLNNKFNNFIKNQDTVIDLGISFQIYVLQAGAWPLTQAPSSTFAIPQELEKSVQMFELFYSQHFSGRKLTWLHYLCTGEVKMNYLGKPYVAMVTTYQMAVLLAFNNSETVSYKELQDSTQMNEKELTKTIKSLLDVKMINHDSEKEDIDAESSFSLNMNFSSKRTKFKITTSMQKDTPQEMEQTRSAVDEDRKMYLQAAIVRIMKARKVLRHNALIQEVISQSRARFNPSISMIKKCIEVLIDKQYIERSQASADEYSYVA
- test-details: Protac activity against VHL/cullin2/ERalpha in human MCF7 cells assessed as ERalpha degradation by measuring ER protein/GADPH ratio at 10 nM after 4 hrs by Western blot analysis relative to control
- Assay type: cell-based
Examples of compounds with documented Ratio follow.
measured-parameter: Ratio

1) CCN(CCC#Cc1cnn(CC(=O)N[C@H](C(=O)N2C[C@H](O)C[C@H]2C(=O)N[C@@H](C)c2ccc(-c3scnc3C)cc2)C(C)(C)C)c1)CCOc1ccc(C(=O)c2c(-c3ccc(O)cc3)sc3cc(O)ccc23)cc1 = 45
2) CCN(CCCCCCCCC(=O)N[C@H](C(=O)N1C[C@H](O)C[C@H]1C(=O)N[C@@H](C)c1ccc(-c2scnc2C)cc1)C(C)(C)C)CCOc1ccc(C(=O)c2c(-c3ccc(O)cc3)sc3cc(O)ccc23)cc1 = 7
3) CCN(CCCCCCCC(=O)N[C@H](C(=O)N1C[C@H](O)C[C@H]1C(=O)N[C@@H](C)c1ccc(Cl)cc1)C(C)(C)C)CCOc1ccc(C(=O)c2c(-c3ccc(O)cc3)sc3cc(O)ccc23)cc1 = 87
4) CCN(CCCCCCCC(=O)N[C@H](C(=O)N1C[C@H](O)C[C@H]1C(=O)N[C@@H](C)c1ccc(-c2scnc2C)cc1)C(C)(C)C)CCOc1ccc(C(=O)c2c(-c3ccc(O)cc3)sc3cc(O)ccc23)cc1 = 0.4
5) CCN(CCOc1ccc(C(=O)c2c(-c3ccc(O)cc3)sc3cc(O)ccc23)cc1)CCN1CCN(CCCC(=O)N[C@H](C(=O)N2C[C@H](O)C[C@H]2C(=O)N[C@@H](C)c2ccc(-c3scnc3C)cc2)C(C)(C)C)CC1 = 50
6) C#Cc1ccc([C@H](C)NC(=O)[C@@H]2C[C@@H](O)CN2C(=O)[C@@H](NC(=O)CCCCCCCN(CC)CCOc2ccc(C(=O)c3c(-c4ccc(O)cc4)sc4cc(O)ccc34)cc2)C(C)(C)C)cc1 = 24
7) CCN(CCCCc1cnn(CC(=O)N[C@H](C(=O)N2C[C@H](O)C[C@H]2C(=O)N[C@@H](C)c2ccc(-c3scnc3C)cc2)C(C)(C)C)c1)CCOc1ccc(C(=O)c2c(-c3ccc(O)cc3)sc3cc(O)ccc23)cc1 = 20
8) CCC(=C(c1ccc(O)cc1)c1ccc(OCCN(CC)CCCCCCCC(=O)N[C@H](C(=O)N2C[C@H](O)C[C@H]2C(=O)N[C@@H](C)c2ccc(-c3scnc3C)cc2)C(C)(C)C)cc1)c1ccccc1 = 24
9) CCN(CCCCC(=O)N[C@H](C(=O)N1C[C@H](O)C[C@H]1C(=O)N[C@@H](C)c1ccc(-c2scnc2C)cc1)C(C)(C)C)CCOc1ccc(C(=O)c2c(-c3ccc(O)cc3)sc3cc(O)ccc23)cc1 = 129
10) CCN(CCCCCCCC(=O)N[C@H](C(=O)N1C[C@H](O)C[C@H]1C(=O)NCc1ccc(-c2scnc2C)cc1)C(C)(C)C)CCOc1ccc(C(=O)c2c(-c3ccc(O)cc3)sc3cc(O)ccc23)cc1 = 71
11) CCN(CCCCCCCC(=O)N[C@H](C(=O)N1C[C@H](O)C[C@H]1C(=O)N[C@@H](C)c1ccc(C2CC2)cc1)C(C)(C)C)CCOc1ccc(C(=O)c2c(-c3ccc(O)cc3)sc3cc(O)ccc23)cc1 = 75
12) CCN(CCCCCCCC(=O)N[C@H](C(=O)N1C[C@H](O)C[C@H]1C(=O)N[C@@H](C)c1ccc(C#N)cc1)C(C)(C)C)CCOc1ccc(C(=O)c2c(-c3ccc(O)cc3)sc3cc(O)ccc23)cc1 = 86
